experiment-summary: soluble on expression in E. coli; label from the status in PepcDB or PDB records
endpoint-name: soluble on expression in E. coli

Past entries and their recorded results:
[
  {
    "sequence-record": "TTEEKKEEFLATVIDSVGDGVIVIDLDGRIALMNPAAEEISGISRRQAVGHRFALVFHREAVLREMVGKTATSGMTISDHENIVIRKLKQLTPVSATTFPLMLPHGETTGTILVLRD",
    "soluble on expression in E. coli": "not soluble"
  },
  {
    "sequence-record": "MTDNPAVDKRDQILAAAEQLIAESGFQGLSMQKLANEAGVAAGTIYRYFSDKEHLLEEVRLNVAKRIASAVQAGVNDDMPLKECYRTMWLNIWNLAGSNLNAISNRVQYDSLPCTTRNKTWELERKMFAQVDRLFNQGKEEGVFKPLDNEVLSGLSFEASVALARKHALGFYQLDDDALEAAIEASWDAIIKH",
    "soluble on expression in E. coli": "soluble"
  },
  {
    "sequence-record": "MFNALLLTQQDKITHATVTQINDDQLPAGNVTVAVNYSSLNYKDGLAITGKGKIIREFPMVPGIDFAGTVLESADARYQVGDAVVLTGWGVGENHWGGMAQKARLNADWLVKLPQGLTSQQAMMIGTAGFTAMLCVQALIDGGIKPEDGEILVTGASGGVGSVAVTLLAQLGYKVVAVTGRVAQNGPLLEQLGASRVIDRQEFSEASRPLEKQLWVGAVDTVGSKVLAKVLAQMHYNGVVAACGLAGGFDLPTTVMPFILRNVRLQGVDSVSCPVEKRLAAWKKLAELLPASYYAQACHEISLSQVPEYAEAITNGQVTGRVVVKL",
    "soluble on expression in E. coli": "not soluble"
  },
  {
    "sequence-record": "MGSDKIHHHHHHMENLTLKGKVILEGIIELETGMHIGGTKETLKIGGTDNPVIRDAFGRILIPGSSLKGKIRALLERKDGKYKEDGRGNYLPHDCGECEICKIFGPHDSKNIKEPVRVIVRDAYLQPEENKKDYDYLEIKVENTIDRLKGTTIKGGIRNMERVVAGSKFKFEVVFNIYKESDKELIKKFIEGMKLLEDDYLGGSGSRGYGKIKFRDIKLICKPKEYYEGNENSKKESDEVESLNELESELDKIWGGINFN",
    "soluble on expression in E. coli": "not soluble"
  },
  {
    "sequence-record": "MGSDKIHHHHHHAVVSCDSILGEEEVDCSVEYRVKFKYDYNMKYADAFSREVGTVTLYAFDDNGKLVYQKTEEGDVLGEEGYTMKVDLEPGDYHLVTWAGLNDEASFSVPLVTAGESSLDELQCRMDRLYSRAADGTAVVNSKLSALWHGEVTKQSFSRAASSQVVTVPLVKNTNTIRIILQQMDGVTVEVDKFEFTITDDNGLMNYDNKLLEDETLTYYPYYRMQGGTDMGIRADGDAEDSNISVAIAQITVGRLVVENNPRLTITNKETGEPVLSIPLVKYLLLTEAEGHEMTNQEYLDRQDEYNMTFFLDESMKWINTSIIINDWVVRFNELDM",
    "soluble on expression in E. coli": "not soluble"
  }
]

# return recorded soluble on expression in E. coli for entry MKARKRKEQTFHEYFKEWVDLYKVGAIRSITLQKYYVTEQKIQELVPDLKIKDLDRYTYQQLLNSYAVTHEKQTTMDFHHHLKGAILDAVDEGVISQNPTRKIVIKGKTPRPKKAKFLNQFEVQALLKELNLKEDINWDWFILLIIKTGLRFSEALALTPSDFDFSKQKIIINKTWDYKMVTGSFQPTKNESSNRKIQIDWQLAMQFSQLIKMKDPDKPIFVKSRVFNSTINNRLKVLCENANIPTITVHSLRHTHASLLLFAGVSIASVANRLGHSSMTTTQETYLHIIQELENQDNDKIIRHLSMLM
not soluble

Retrieve soluble on expression in E. coli measured for MTNHPIQGLMTTAMENLKQMIDVNTIIGDPVETPDGSVILTVSKVGFGFAAGGSEFMLDGQQNGHQGAQADGNGHPFGGGSGGGVSITPIAFLVVNSSGVKLLHLDESTHLYEKILDVAPQAFEKIQAMLKKNKKDGAAGQKADDFDI and print it.
not soluble

For MGSDKIHHHHHHMSISVKSNRALFDLDLLRAIVVVADCGSFTTAAARLHSTQSTISQKVRRLEDMVGHRLLVRGNRDVLPTDAGQTLLGYARHMLALNDQMLEALAGAMVGTTVRLGVPEDFVGGRTTNALSAFSRLHPQVKLEVTSGLCRDLSQAYDNGELDLVLLKQRRNSREGVACWPERLQWIDSARTPAFELDPIPLVTFPPRGLYREDMINAIEGMGRRWRISFTSSSLSGIQAAVADGMGISLLPPRAATGEHRVLGAGQGLPEVDSYEIVIVHRPTADVMVKALAEVMTQLLAGGGI , write its soluble on expression in E. coli.
not soluble

Entry MLERQQDSFRFICRTCPFYYQVEGKMERKVFGLQKKQEADILGGDKQWELADQTDTLCPRCSHGKAYFFQMQTRSADEPMSTFYRCVHCGHQWKEN needs its soluble on expression in E. coli filled in; supply it.
soluble
